Experiment: Pharmacokinetics in dogs
Type: in vivo
Conditions: male, dog, plasma; beagle dogs, IV bolus at 1 mg/kg and PO at 5 mg/kg
PROPERTY_LABEL: clearance (mL/min/kg)

| COMPOUND | UNIT_DESCRIPTOR | REPORTED_VALUE |
| --- | --- | --- |
| CC(=O)Nc1nc(C)c(-c2cc3c(c(NS(C)(=O)=O)n2)C(=O)N([C@@H](C)C2CC2)C3)s1 [Compound 20] | mL/min/kg | 6.1 |
| CC(=O)Nc1nc(C)c(-c2cc3c(c(N4CCOCC4)n2)C(=O)N([C@@H](C)C2CC2)C3)s1 [Compound 34] | mL/min/kg | 4.5 |

---

Target: PI3K delta (Homo sapiens)
Construct: endogenous in cells; host or cells: Raji
Sequence (O00329 whole entry): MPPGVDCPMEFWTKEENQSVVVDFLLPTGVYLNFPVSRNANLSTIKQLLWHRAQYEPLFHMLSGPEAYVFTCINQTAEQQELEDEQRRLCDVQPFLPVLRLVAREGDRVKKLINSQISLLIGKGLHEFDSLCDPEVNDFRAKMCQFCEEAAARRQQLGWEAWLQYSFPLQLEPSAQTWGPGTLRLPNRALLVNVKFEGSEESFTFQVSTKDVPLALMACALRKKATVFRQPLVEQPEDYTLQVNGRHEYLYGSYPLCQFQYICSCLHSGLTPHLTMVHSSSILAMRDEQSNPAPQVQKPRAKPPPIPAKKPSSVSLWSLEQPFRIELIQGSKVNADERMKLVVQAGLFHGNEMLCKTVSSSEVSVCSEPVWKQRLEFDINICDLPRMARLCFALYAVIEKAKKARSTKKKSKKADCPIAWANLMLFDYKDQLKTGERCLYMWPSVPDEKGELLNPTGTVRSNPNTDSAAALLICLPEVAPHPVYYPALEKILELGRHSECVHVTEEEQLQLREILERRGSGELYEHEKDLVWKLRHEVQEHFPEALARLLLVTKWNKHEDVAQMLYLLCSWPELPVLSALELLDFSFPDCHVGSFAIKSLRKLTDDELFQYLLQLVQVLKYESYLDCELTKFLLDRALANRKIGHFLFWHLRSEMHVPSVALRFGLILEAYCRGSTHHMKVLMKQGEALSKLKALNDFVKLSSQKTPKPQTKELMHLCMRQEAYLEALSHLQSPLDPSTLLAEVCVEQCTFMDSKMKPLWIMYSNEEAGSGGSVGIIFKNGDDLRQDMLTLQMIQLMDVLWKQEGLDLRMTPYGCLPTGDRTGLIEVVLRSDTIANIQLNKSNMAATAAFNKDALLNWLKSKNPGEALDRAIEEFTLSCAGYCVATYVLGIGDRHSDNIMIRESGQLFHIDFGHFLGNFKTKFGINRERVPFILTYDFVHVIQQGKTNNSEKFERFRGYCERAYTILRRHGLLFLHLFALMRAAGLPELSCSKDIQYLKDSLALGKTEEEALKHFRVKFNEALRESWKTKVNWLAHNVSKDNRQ
Sequence (P27986 whole entry partner): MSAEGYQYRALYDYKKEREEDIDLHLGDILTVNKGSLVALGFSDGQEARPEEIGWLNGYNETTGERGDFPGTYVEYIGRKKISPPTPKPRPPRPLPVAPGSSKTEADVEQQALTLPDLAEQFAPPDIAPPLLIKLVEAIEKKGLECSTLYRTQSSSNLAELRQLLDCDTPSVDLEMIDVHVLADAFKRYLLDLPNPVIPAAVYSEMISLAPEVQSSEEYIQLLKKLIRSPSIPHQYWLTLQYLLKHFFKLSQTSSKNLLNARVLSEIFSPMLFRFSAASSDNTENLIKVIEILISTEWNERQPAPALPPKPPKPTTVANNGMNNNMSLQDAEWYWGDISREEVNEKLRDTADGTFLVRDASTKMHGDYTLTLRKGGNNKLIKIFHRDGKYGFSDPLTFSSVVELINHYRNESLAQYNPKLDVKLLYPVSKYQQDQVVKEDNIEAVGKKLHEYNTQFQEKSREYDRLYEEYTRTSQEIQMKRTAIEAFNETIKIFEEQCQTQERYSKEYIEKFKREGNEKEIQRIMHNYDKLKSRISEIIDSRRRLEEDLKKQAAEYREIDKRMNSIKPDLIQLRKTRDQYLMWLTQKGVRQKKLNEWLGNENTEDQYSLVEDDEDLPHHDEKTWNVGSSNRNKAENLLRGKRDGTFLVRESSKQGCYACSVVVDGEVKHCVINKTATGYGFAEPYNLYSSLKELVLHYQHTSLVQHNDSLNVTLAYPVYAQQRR
Assay: Raji cell assay: phosphorylation of AKT in anti-IgM stimulated Raji cells (AlphaLISA)
Format: cell-based
Settings: pAKT, read-out: PI3K delta Raji cell (nM) cellular activity (IC50)
PROPERTY_LABEL: IC50 (nM)

Example entries and their recorded answers appear below.
| ENTRY_SMILES | PROPERTY_LABEL | UNIT_DESCRIPTOR | REPORTED_VALUE |
| --- | --- | --- | --- |
| CC(=O)Nc1nc(C)c(-c2cc3c(c(N4CCOCC4)n2)C(=O)N([C@@H](C)C2CC2)C3)s1 | IC50 | nM | 1960 |
| CC(=O)Nc1nc(C)c(-c2cc3c(c(NS(C)(=O)=O)n2)C(=O)N([C@@H](C)C2CC2)C3)s1 | IC50 | nM | 2160 |
| CC(=O)Nc1nc(C)c(-c2cc3c(c(NS(=O)(=O)C4CC4)n2)C(=O)N([C@@H](C)C2CC2)C3)s1 | IC50 | nM | 1420 |

P. CCS(=O)(=O)Nc1nc(-c2sc(NC(C)=O)nc2C)cc2c1C(=O)N([C@@H](C)C1CC1)C2
Q. COc1nc(-c2sc(NC(C)=O)nc2C)cc2c1C(=O)N([C@@H](C)C1CC1)C2
Among P and Q , which shows a numerically higher IC50 result? State the label of the item chosen. Q

---

Target: PI3Kδ (Homo sapiens)
Sequence (O00329 whole entry, species assumed): as the sequence (O00329 whole entry) above
Sequence (P27986 whole entry partner, species assumed): as the sequence (P27986 whole entry partner) above
Test: ADP-Glo luminescent assay, enzymatic activity of PI3K delta
Type: biochemical
Details: ATP 25 μM; read-out: PI3K delta (nM) inhibitory activity (IC50)
Method: Enzymatic activity of PI3K isoforms: Enzymatic activity of the class I PI3K isoforms in the presence of the compounds of Table 1 was measured using ADP-Glo luminescent assay against PI3Kα, PI3Kβ, PI3Kδ and PI3Kγ with ATP concentration at 25 μM. […] The compounds would be tested from 1 or 10 μM, 3-fold dilution for 10 doses, in duplicate. Compound preparation: Dilute a compound to 100× of the final desired highest inhibitor concentration in reaction by 100% DMSO. […]
PROPERTY_LABEL: IC50 (nM)

Record excerpt, results attached:
| COMPOUND | SYSTEM_UNDER_TEST | IC50 [nM] |
| --- | --- | --- |
| CC(=O)Nc1nc(C)c(-c2cc3c(c(N4CCS(=O)(=O)CC4)n2)C(=O)N([C@@H](C)C2CC2)C3)s1 | PI3Kδ (Homo sapiens) | 1550 |
| CC(=O)Nc1nc(C)c(-c2cc3c(c(N4CCOCC4)n2)C(=O)N(C(C)C(F)(F)F)C3)s1 (stereo in doubt) | PI3Kδ (Homo sapiens) | 1250 |

I. CC(=O)Nc1nc(C)c(-c2cc3c(c([S@](C)(=N)=O)c2)C(=O)N([C@@H](C)C2CC2)C3)s1 (racemic)
II. CC(=O)Nc1nc(C)c(-c2cc3c(c(N4CCOCC4)n2)C(=O)N([C@H](C)C2CC2)C3)s1
So which one has the bigger IC50 here, I or II ? # respond with the chosen item's label II

---

Target: UniProtKB O00329
Assay: ADP-Glo luminescent assay, enzymatic activity of PI3K delta
Type: biochemical
Conditions: ATP 25 μM; read-out: PI3K delta (nM) inhibitory activity (IC50)
Description: Enzymatic activity of PI3K isoforms: Enzymatic activity of the class I PI3K isoforms in the presence of the compounds of Table 1 was measured using ADP-Glo luminescent assay against PI3Kα, PI3Kβ, PI3Kδ and PI3Kγ with ATP concentration at 25 μM. […] The compounds would be tested from 1 or 10 μM, 3-fold dilution for 10 doses, in duplicate. Compound preparation: Dilute a compound to 100× of the final desired highest inhibitor concentration in reaction by 100% DMSO. […]
PROPERTY_LABEL: IC50 (nM)

| COMPOUND | IC50 / nM |
| --- | --- |
| CC(=O)Nc1nc(C)c(-c2cc3c(c([S@@+](C)[O-])c2)C(=O)N([C@@H](C)C2CC2)C3)s1 (racemic) | 2080 |

P. CCS(=O)(=O)Nc1nc(-c2sc(NC(C)=O)nc2C)cc2c1C(=O)N([C@@H](C)C1CC1)C2
Q. CC(=O)Nc1nc(C)c(-c2ccc3c(c2)CN([C@@H](C)C2CC2)C3=O)s1
Compare P and Q and name the one whose reported IC50 is smaller. Let me know the label of the one you choose. Q
(Q: 359 nM, P: 1210 nM)

---

Molecular target: PI3K gamma (Mus musculus, UniProt Q9JHG7)
Construct: endogenous in cells; host or cells: RAW264.7
Sequence (Q9JHG7 whole entry): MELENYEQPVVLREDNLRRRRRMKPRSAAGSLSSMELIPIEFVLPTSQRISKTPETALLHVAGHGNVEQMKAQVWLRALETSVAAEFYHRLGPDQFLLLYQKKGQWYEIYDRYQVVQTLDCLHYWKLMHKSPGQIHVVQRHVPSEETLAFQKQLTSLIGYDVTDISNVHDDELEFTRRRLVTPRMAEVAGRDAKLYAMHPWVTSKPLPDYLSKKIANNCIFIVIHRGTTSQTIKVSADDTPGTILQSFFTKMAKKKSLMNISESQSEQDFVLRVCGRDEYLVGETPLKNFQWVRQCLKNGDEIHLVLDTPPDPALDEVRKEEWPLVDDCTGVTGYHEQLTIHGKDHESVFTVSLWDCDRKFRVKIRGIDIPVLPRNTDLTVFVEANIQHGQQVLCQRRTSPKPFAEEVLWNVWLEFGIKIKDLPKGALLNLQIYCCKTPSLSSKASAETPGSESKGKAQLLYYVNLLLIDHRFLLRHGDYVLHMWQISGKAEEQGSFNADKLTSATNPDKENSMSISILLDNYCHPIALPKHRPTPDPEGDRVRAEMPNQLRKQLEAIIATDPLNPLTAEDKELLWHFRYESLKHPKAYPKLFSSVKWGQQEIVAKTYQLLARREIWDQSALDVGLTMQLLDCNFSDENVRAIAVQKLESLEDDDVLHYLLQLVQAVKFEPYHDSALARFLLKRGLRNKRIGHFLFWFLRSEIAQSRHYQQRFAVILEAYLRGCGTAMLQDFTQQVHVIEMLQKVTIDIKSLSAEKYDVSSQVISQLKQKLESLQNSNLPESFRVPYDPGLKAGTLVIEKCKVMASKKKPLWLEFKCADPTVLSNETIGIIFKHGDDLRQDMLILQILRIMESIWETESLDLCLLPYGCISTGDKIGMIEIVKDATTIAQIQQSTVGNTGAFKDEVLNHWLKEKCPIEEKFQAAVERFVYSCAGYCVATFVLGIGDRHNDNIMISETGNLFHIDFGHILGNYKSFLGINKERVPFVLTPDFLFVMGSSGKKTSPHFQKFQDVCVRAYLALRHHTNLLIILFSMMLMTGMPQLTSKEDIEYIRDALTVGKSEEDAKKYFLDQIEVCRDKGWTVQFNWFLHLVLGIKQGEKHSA
Sequence (Q5SW28 whole entry partner): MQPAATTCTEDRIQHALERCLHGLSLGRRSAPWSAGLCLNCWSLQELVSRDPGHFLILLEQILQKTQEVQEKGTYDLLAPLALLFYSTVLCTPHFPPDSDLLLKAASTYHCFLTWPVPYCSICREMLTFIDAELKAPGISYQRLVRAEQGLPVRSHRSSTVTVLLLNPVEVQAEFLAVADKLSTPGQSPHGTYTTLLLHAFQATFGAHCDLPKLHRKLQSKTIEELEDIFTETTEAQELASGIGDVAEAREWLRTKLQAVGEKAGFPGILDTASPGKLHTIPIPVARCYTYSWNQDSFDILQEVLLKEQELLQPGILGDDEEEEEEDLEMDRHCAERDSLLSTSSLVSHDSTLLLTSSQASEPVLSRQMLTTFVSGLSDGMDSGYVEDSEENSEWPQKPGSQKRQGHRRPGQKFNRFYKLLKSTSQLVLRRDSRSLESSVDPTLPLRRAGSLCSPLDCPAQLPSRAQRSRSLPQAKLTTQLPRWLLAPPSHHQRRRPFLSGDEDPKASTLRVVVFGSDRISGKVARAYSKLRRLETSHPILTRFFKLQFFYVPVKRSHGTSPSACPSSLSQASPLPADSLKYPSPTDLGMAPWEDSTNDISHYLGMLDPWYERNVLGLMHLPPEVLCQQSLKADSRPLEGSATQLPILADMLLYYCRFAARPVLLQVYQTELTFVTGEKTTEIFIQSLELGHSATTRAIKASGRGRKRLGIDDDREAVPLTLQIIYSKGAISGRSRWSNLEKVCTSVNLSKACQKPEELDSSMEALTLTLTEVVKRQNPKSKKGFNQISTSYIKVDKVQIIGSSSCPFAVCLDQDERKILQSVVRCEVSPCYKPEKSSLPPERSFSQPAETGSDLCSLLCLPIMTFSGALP
Test: Raw264.7 cell assay: phosphorylation of AKT in C5a stimulated RAW264.7 cells (AlphaLISA)
Type: cell-based
Details: pAKT, read-out: PI3K gamma Raw264.7 cell (nM) cellular activity (IC50)
PROPERTY_LABEL: IC50 (nM)

Completed entries (count: 3):
| COMPOUND | IC50, nM |
| --- | --- |
| CC(=O)Nc1nc(C)c(-c2cnc3c(c2)CN([C@@H](C)C2CC2)C3=O)s1 | 115 |
| CC(=O)Nc1nc(C)c(-c2cc3c(c(N4CCOCC4)n2)C(=O)N(C(C)C(F)(F)F)C3)s1 (stereo in doubt) | 3.3 |
| CCP(=O)(CC)c1cc(-c2sc(NC(C)=O)nc2C)cc2c1C(=O)N([C@@H](C)C1CC1)C2 | 307 |

1. CC(=O)Nc1nc(C)c(-c2cc3c(c(N4CCNCC4)n2)C(=O)N([C@@H](C)C2CC2)C3)s1
2. CC(=O)Nc1nc(C)c(-c2cc3c(c(N4CCOCC4)n2)C(=O)N([C@H](C)C2CC2)C3)s1
3. CC(=O)Nc1nc(C)c(-c2cc3c(c(C(C)N4CCOCC4)n2)C(=O)N([C@@H](C)C2CC2)C3)s1 (stereo partly shown)
4. Cc1nc(NC(=O)C(C)C)sc1-c1cc2c(c(P(C)(C)=O)c1)C(=O)N([C@@H](C)C1CC1)C2
Hello, I need these entries ordered by IC50, highest reading first. Thanks! Use the labels to give the ranking in the order requested. 4, 1, 3, 2

---

Target: PI3Kγ (Homo sapiens, UniProt P48736)
Sequence (P48736 whole entry, species assumed): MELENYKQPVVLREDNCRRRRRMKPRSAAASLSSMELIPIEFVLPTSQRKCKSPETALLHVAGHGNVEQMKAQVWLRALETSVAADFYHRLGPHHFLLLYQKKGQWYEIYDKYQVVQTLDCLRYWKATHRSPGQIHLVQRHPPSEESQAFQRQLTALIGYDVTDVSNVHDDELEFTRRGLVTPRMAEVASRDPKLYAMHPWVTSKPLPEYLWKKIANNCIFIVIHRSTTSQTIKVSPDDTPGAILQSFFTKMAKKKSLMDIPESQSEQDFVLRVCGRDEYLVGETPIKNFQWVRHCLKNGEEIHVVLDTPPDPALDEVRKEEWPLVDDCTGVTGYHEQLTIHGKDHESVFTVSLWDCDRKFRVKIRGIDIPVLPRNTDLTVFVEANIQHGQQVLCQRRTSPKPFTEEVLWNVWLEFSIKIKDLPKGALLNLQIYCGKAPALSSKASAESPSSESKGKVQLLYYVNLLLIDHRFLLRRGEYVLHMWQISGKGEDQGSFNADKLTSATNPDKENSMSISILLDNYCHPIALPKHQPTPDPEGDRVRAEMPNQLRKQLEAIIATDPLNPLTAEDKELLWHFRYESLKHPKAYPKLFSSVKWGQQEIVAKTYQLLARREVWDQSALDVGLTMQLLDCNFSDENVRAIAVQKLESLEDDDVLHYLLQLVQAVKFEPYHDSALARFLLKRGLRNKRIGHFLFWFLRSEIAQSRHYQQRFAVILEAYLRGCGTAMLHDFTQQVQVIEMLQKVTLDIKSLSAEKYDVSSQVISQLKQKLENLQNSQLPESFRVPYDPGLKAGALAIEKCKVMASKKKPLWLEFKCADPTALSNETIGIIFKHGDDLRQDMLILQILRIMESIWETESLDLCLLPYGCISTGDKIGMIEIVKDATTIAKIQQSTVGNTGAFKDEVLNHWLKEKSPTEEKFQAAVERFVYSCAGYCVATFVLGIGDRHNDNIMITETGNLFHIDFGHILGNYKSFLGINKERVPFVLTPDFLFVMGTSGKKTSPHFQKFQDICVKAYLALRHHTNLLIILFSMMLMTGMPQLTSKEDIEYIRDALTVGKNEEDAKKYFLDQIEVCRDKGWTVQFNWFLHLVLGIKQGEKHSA
Assay: ADP-Glo luminescent assay, enzymatic activity of PI3K gamma
Format: biochemical
Conditions: ATP 25 μM; read-out: PI3K gamma (nM) inhibitory activity (IC50)
Protocol: The compounds would be tested from 1 or 10 μM, 3-fold dilution for 10 doses, in duplicate. Compound preparation: Dilute a compound to 100× of the final desired highest inhibitor concentration in reaction by 100% DMSO. […] Kinase reaction: Prepare a solution of PI3K in 1× kinase buffer at 2-fold the final concentration of each reagent in the assay. […] Add 10 ul Kinase Detection Reagent to each well, shake 1 min, equilibrate for 30 min before reading on a luminescence plate reader. […]
PROPERTY_LABEL: IC50 (nM)

Recorded results for 5 compounds are shown here.
| COMPOUND | IC50 / nM |
| --- | --- |
| CC(=O)Nc1ncc(-c2cc3c(c(N4CCOCC4)n2)C(=O)N([C@@H](C)C2CC2)C3)s1 | 2.3 |
| CC(=O)Nc1nc(C)c(-c2cc3c(c(N4CCC(O)CC4)n2)C(=O)N([C@@H](C)C2CC2)C3)s1 | 0.7 |
| CC(=O)Nc1nc(C)c(-c2ccc3c(n2)CN([C@@H](C)C2CC2)C3=O)s1 | 22 |
| CCS(=O)(=O)Nc1nc(-c2sc(NC(C)=O)nc2C)cc2c1C(=O)N([C@@H](C)C1CC1)C2 | 1 |
| CC(=O)Nc1nc(C)c(-c2cc3c(c(C(=O)O)n2)C(=O)N([C@@H](C)C2CC2)C3)s1 | 56 |

P. CC(=O)Nc1nc(C)c(-c2cc3c(c(NS(C)(=O)=O)n2)C(=O)N([C@@H](C)C2CC2)C3)s1
Q. CC(=O)Nc1nc(C)c(-c2cc3c(c(N4CCCC4=O)n2)C(=O)N([C@@H](C)C2CC2)C3)s1
R. CC(=O)Nc1nc(C)c(-c2cnc3c(c2)CN([C@@H](C)C2CC2)C3=O)s1
Sort by IC50, descending. Provide the ranking by listing each label in its place in the requested order. R, Q, P
(R: 34 nM, Q: 3.8 nM, P: 1.3 nM)

1. CC(=O)Nc1nc(C)c(-c2cc3c(c([S+](C)[O-])c2)C(=O)N(C(C)(C)C)C3)s1 (racemic)
2. CC(=O)Nc1nc(C)c(-c2cc3c(c(NC(=O)N(C)C)n2)C(=O)N([C@@H](C)C2CC2)C3)s1
API: POST /compare with 1 and 2 ; response names the item with higher IC50. Your answer should be the label attached to the chosen record. 1

a. CC(=O)Nc1nc(C)c(-c2cc3c(c(N4CCNCC4)n2)C(=O)N([C@@H](C)C2CC2)C3)s1
b. CC(=O)Nc1nc(C)c(-c2cc3c(c(N4CC(S(C)(=O)=O)C4)n2)C(=O)N([C@@H](C)C2CC2)C3)s1
Please indicate which has the smaller reported IC50: a , or b . Your answer should be the label of the entry you select. b

1. CC(=O)Nc1nc(C)c(-c2cc3c(c(NC(=O)C4CC4)n2)C(=O)N([C@@H](C)C2CC2)C3)s1
2. CC[S@@+]([O-])c1cc(-c2sc(NC(C)=O)nc2C)cc2c1C(=O)N([C@@H](C)C1CC1)C2 (racemic)
Which of the two gives a bigger number for IC50: 1 or 2 ? Kindly give the label for the entry you pick. 2
